measured target: DRAK2 (Homo sapiens (Human))
Sequence (O94768 whole entry): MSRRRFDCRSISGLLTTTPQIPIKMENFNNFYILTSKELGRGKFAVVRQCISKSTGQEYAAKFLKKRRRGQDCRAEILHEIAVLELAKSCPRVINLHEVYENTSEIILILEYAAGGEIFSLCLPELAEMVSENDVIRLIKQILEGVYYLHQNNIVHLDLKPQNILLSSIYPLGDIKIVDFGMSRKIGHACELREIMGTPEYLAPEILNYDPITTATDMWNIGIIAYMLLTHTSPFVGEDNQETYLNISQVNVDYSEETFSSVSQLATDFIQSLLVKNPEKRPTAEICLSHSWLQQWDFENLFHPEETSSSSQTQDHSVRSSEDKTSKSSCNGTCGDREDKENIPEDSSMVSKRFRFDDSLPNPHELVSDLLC
procedure details: DRAK2 kinase activity inhibition (ADP-Glo, MRCL3 peptide substrate)
Assay type: biochemical
assay conditions: Table 3; recombinant enzyme, 1 uM ATP, 1 uM MRCL3 peptide, 30° C., 2 hours
observable: IC50 (nM)

Worked cases, IC50 given:
>>> df
                                   molecule               measured_target  value_measured
0       CCCCCc1ccc(Nc2ncc(Cl)c(NCCCN)n2)cc1  DRAK2 (Homo sapiens (Human))              80
1  Cc1cnc(Nc2ccc(S(=O)(=O)c3ccc([N+](=O)[O-])cc3)cc2)nc1NCCCN  DRAK2 (Homo sapiens (Human))             340
2  COc1cnc(Nc2ccc(Cl)cc2)nc1NCCCN [Comparative Example 3, reference compound]  DRAK2 (Homo sapiens (Human))             870

(I) Cc1cnc(Nc2ccc(Cl)cc2)nc1NCCCN
(II) NCCCNc1nc(Nc2ccc3c(c2)OCO3)ncc1Cl
Input: Please indicate which has the smaller reported IC50: I , or II . Indicate which entry you chose by stating its label.
Output: II

(P) Cc1ccc(Nc2ncc(C)c(NCCCN)n2)cc1Cl
(Q) NCCCNc1nc(Nc2ccc(Br)c(C(F)(F)F)c2)ncc1Cl
(R) NCCCNc1nc(Nc2ccc(Br)cc2)ncc1Cl
(S) NCCCNc1ccnc(Nc2ccc(Cl)cc2)n1 [Comparative Example 4, reference compound]
Input: Put the molecules in ascending order of IC50. Reply: labels, ordered per the request.
Output: R, Q, P, S

(A) NCCCNc1nc(Nc2ccc(N3CCNCC3)cc2)ncc1Cl
(B) Cc1cnc(Nc2ccc3c(c2)OCCO3)nc1NCCCN
Input: Which of the two gives a bigger number for IC50: A or B ? Indicate which entry you chose by stating its label.
Output: B
(B: 110 nM, A: 22 nM)

(A) NCCCCNc1nc(Nc2cc(Cl)cc(Cl)c2)ncc1Cl
(B) NCCCNc1nc(Nc2ccc(Cl)cc2)ncc1C(F)(F)F [Comparative Example 2, reference compound]
Input: Which of the two gives a bigger number for IC50: A or B ? Indicate which entry you chose by stating its label.
Output: B
(B: 120 nM, A: 31 nM)
